# Tested on: NCI-H2347
# Test description: relative viability (nuclei count vs DMSO), 5 days (fraction); higher = more cells survive
# Settings: first compound 0.003162 µM
Attribute measured: relative viability
Output spec: single numeric token, no unit.

Reference set, count: 2
1. Cc1cn(-c2cc(NC(=O)c3ccc(C)c(Nc4nccc(-c5cccnc5)n4)c3)cc(C(F)(F)F)c2)cn1 [Nilotinib] + CC(C)C[C@H](NC(=O)[C@H](Cc1ccccc1)NC(=O)c1cnccn1)B(O)O [Bortezomib] (partner 0.002 µM) = 1.08
2. Cc1cn(-c2cc(NC(=O)c3ccc(C)c(Nc4nccc(-c5cccnc5)n4)c3)cc(C(F)(F)F)c2)cn1 [Nilotinib] + O=C(CCCCCCC(=O)Nc1ccccc1)NO [Vorinostat] (partner 1 µM) = 0.516

Asked: State the recorded relative viability for this entry: Cc1cn(-c2cc(NC(=O)c3ccc(C)c(Nc4nccc(-c5cccnc5)n4)c3)cc(C(F)(F)F)c2)cn1 [Nilotinib] + Nc1ncn([C@H]2C[C@H](O)[C@@H](CO)O2)c(=O)n1 [Decitabine] (partner 2 µM)
Given back: 0.694

* * *

# System: NCI-H1650
# Test description: relative viability (nuclei count vs DMSO), 5 days (fraction); higher = more cells survive
# Settings: first compound 20 µM
The molecules listed here are annotated with their relative viability.

Reference set, count: 3
1. Cc1csc(=NC2CCCCC2)n1/N=C/c1ccc(O)c(O)c1O [MIM1] + CC(C)C[C@H](NC(=O)[C@H](Cc1ccccc1)NC(=O)c1cnccn1)B(O)O [Bortezomib] (partner 0.002 µM) = 0.165
2. Cc1csc(=NC2CCCCC2)n1/N=C/c1ccc(O)c(O)c1O [MIM1] + CC(=O)Nc1cccc(-n2c(=O)n(C3CC3)c(=O)c3c(Nc4ccc(I)cc4F)n(C)c(=O)c(C)c32)c1 [Trametinib] (partner 0.02 µM) = 0.138
3. Cc1csc(=NC2CCCCC2)n1/N=C/c1ccc(O)c(O)c1O [MIM1] + C[C@@H](Oc1cc(-c2cnn(C3CCNCC3)c2)cnc1N)c1c(Cl)ccc(F)c1Cl [Crizotinib] (partner 1 µM) = 0.156

Let's switch to this molecule now.
Asked: State the recorded relative viability for this entry: Cc1csc(=NC2CCCCC2)n1/N=C/c1ccc(O)c(O)c1O [MIM1] + CS(=O)(=O)N1CCN(Cc2cc3nc(-c4cccc5[nH]ncc45)nc(N4CCOCC4)c3s2)CC1 [Pictilisib] (partner 1 µM)
Given back: 0.167

* * *

# Tested on: NCI-H2023
# Test description: relative viability (nuclei count vs DMSO), 5 days (fraction); higher = more cells survive
# Settings: first compound 8 µM
relative viability under 0.5 gets Yes, anything at or over 0.5 gets No.

The examples below pair each entry with its known result.
1. Nc1cccc2c1CN(C1CCC(=O)NC1=O)C2=O (stereo unspecified) [Lenalidomide] + O=C(c1cc(Cc2n[nH]c(=O)c3ccccc23)ccc1F)N1CCN(C(=O)C2CC2)CC1 [Olaparib] (partner 8 µM) = Yes
2. Nc1cccc2c1CN(C1CCC(=O)NC1=O)C2=O (stereo unspecified) [Lenalidomide] + CS(=O)(=O)N1CCN(Cc2cc3nc(-c4cccc5[nH]ncc45)nc(N4CCOCC4)c3s2)CC1 [Pictilisib] (partner 1 µM) = Yes
3. Nc1cccc2c1CN(C1CCC(=O)NC1=O)C2=O (stereo unspecified) [Lenalidomide] + N=C(N)NC(=N)NCCc1ccccc1 [Phenformin] (partner 250 µM) = Yes
4. Nc1cccc2c1CN(C1CCC(=O)NC1=O)C2=O (stereo unspecified) [Lenalidomide] + CC(C)C[C@H](NC(=O)[C@H](Cc1ccccc1)NC(=O)c1cnccn1)B(O)O [Bortezomib] (partner 0.002 µM) = No

Pending compound:
Asked: Given Nc1cccc2c1CN(C1CCC(=O)NC1=O)C2=O (stereo unspecified) [Lenalidomide] + C[C@@H](Oc1cc(-c2cnn(C3CCNCC3)c2)cnc1N)c1c(Cl)ccc(F)c1Cl [Crizotinib] (partner 1 µM) , is recorded relative viability strictly lower than 0.5?
Given back: No

* * *

# Test system: EKVX
# Test description: relative viability (nuclei count vs DMSO), 5 days (fraction); higher = more cells survive
# Settings: first compound 0.006325 µM
The molecules listed here are annotated with their relative viability.

Reference set, count: 3
1) CCNC(=O)c1noc(-c2cc(C(C)C)c(O)cc2O)c1-c1ccc(CN2CCOCC2)cc1 [Luminespib] + Cc1nc(NC(=O)N2CCC[C@H]2C(N)=O)sc1-c1ccnc(C(C)(C)C(F)(F)F)c1 [Alpelisib] (partner 2 µM) = 0.928
2) CCNC(=O)c1noc(-c2cc(C(C)C)c(O)cc2O)c1-c1ccc(CN2CCOCC2)cc1 [Luminespib] + N=C(N)NC(=N)NCCc1ccccc1 [Phenformin] (partner 250 µM) = 0.209
3) CCNC(=O)c1noc(-c2cc(C(C)C)c(O)cc2O)c1-c1ccc(CN2CCOCC2)cc1 [Luminespib] + C[C@@H](Oc1cc(-c2cnn(C3CCNCC3)c2)cnc1N)c1c(Cl)ccc(F)c1Cl [Crizotinib] (partner 1 µM) = 0.989

Asked: State the recorded relative viability for this entry: CCNC(=O)c1noc(-c2cc(C(C)C)c(O)cc2O)c1-c1ccc(CN2CCOCC2)cc1 [Luminespib] + COc1cccc2cc(-c3nc([C@H]4CC[C@H](C(=O)O)CC4)n4ncnc(N)c34)[nH]c12 [OSI-027] (partner 0.5 µM)
Given back: 0.684

* * *

# System: BEN
# Test description: relative viability (nuclei count vs DMSO), 5 days (fraction); higher = more cells survive
# Settings: first compound 2 µM
relative viability under 0.6 gets T, anything at or over 0.6 gets F.

The examples below pair each entry with its known result.
1. Cc1csc(=NC2CCCCC2)n1/N=C/c1ccc(O)c(O)c1O [MIM1] + C[C@@H](Oc1cc(-c2cnn(C3CCNCC3)c2)cnc1N)c1c(Cl)ccc(F)c1Cl [Crizotinib] (partner 1 µM) = F
2. Cc1csc(=NC2CCCCC2)n1/N=C/c1ccc(O)c(O)c1O [MIM1] + Nc1nc2[nH]cc(CCc3ccc(C(=O)N[C@@H](CCC(=O)O)C(=O)O)cc3)c2c(=O)[nH]1 [Pemetrexed] (partner 0.2 µM) = F
3. Cc1csc(=NC2CCCCC2)n1/N=C/c1ccc(O)c(O)c1O [MIM1] + CC1(C)CCC(c2ccc(Cl)cc2)=C(CN2CCN(c3ccc(C(=O)NS(=O)(=O)c4ccc(N[C@H](CCN5CCOCC5)CSc5ccccc5)c(S(=O)(=O)C(F)(F)F)c4)cc3)CC2)C1 [Navitoclax] (partner 0.5 µM) = T
4. Cc1csc(=NC2CCCCC2)n1/N=C/c1ccc(O)c(O)c1O [MIM1] + CC(C)C[C@H](NC(=O)[C@H](Cc1ccccc1)NC(=O)c1cnccn1)B(O)O [Bortezomib] (partner 0.002 µM) = F
5. CN1CCN(CCOc2cc(OC3CCOCC3)c3c(Nc4c(Cl)ccc5c4OCO5)ncnc3c2)CC1 [Saracatinib] + Cc1nc(Nc2ncc(C(=O)Nc3c(C)cccc3Cl)s2)cc(N2CCN(CCO)CC2)n1 [Dasatinib] (partner 0.075 µM) = T
6. CN1CCN(CCOc2cc(OC3CCOCC3)c3c(Nc4c(Cl)ccc5c4OCO5)ncnc3c2)CC1 [Saracatinib] + COc1cccc2cc(-c3nc([C@H]4CC[C@H](C(=O)O)CC4)n4ncnc(N)c34)[nH]c12 [OSI-027] (partner 0.5 µM) = T
7. CN1CCN(CCOc2cc(OC3CCOCC3)c3c(Nc4c(Cl)ccc5c4OCO5)ncnc3c2)CC1 [Saracatinib] + Nc1ncn([C@H]2C[C@H](O)[C@@H](CO)O2)c(=O)n1 [Decitabine] (partner 2 µM) = F
8. CN1CCN(CCOc2cc(OC3CCOCC3)c3c(Nc4c(Cl)ccc5c4OCO5)ncnc3c2)CC1 [Saracatinib] + Nc1nc2[nH]cc(CCc3ccc(C(=O)N[C@@H](CCC(=O)O)C(=O)O)cc3)c2c(=O)[nH]1 [Pemetrexed] (partner 0.2 µM) = F

Pending molecule:
Asked: Given CN1CCN(CCOc2cc(OC3CCOCC3)c3c(Nc4c(Cl)ccc5c4OCO5)ncnc3c2)CC1 [Saracatinib] + CC1(C)CCC(c2ccc(Cl)cc2)=C(CN2CCN(c3ccc(C(=O)NS(=O)(=O)c4ccc(N[C@H](CCN5CCOCC5)CSc5ccccc5)c(S(=O)(=O)C(F)(F)F)c4)cc3)CC2)C1 [Navitoclax] (partner 0.5 µM) , is recorded relative viability strictly lower than 0.6?
Given back: T

* * *

# Tested on: NCI-H650
# Test description: relative viability (nuclei count vs DMSO), 5 days (fraction); higher = more cells survive
# Settings: first compound 20 µM
Attribute measured: relative viability
Output spec: single numeric token, no unit.

1. Cc1csc(=NC2CCCCC2)n1/N=C/c1ccc(O)c(O)c1O [MIM1] + NC(=O)Nc1cc(-c2cccc(F)c2)sc1C(=O)N[C@H]1CCCNC1 [AZD7762] (partner 0.2 µM) = 0.271
2. Cc1csc(=NC2CCCCC2)n1/N=C/c1ccc(O)c(O)c1O [MIM1] + COc1cccc2cc(-c3nc([C@H]4CC[C@H](C(=O)O)CC4)n4ncnc(N)c34)[nH]c12 [OSI-027] (partner 0.5 µM) = 0.36
3. Cc1csc(=NC2CCCCC2)n1/N=C/c1ccc(O)c(O)c1O [MIM1] + Nc1ncn([C@H]2C[C@H](O)[C@@H](CO)O2)c(=O)n1 [Decitabine] (partner 2 µM) = 0.206

Asked: State the recorded relative viability for this entry: Cc1csc(=NC2CCCCC2)n1/N=C/c1ccc(O)c(O)c1O [MIM1] + Cc1nc(Nc2ncc(C(=O)Nc3c(C)cccc3Cl)s2)cc(N2CCN(CCO)CC2)n1 [Dasatinib] (partner 0.075 µM)
Given back: 0.301
